# credit: a melting point compilation (Tetko et al.; mined from patent text by program, amines drawn as free bases though some values may be those of a salt)

Quantity: melting point

Examples with answers:
Molecule | melting point
CC(=O)Nc1cccc(Nc2ncnc3[nH]cc(C(=O)c4ccccc4C)c23)c1 | > 300 °C
CCC(C)(O)c1cc(NC(=O)N2CCN(c3cc(OC)cc(OC)c3)CC2)c(OC)nc1C (stereo not drawn) | 127 to 129 °C

Prompt: melting point for COc1cccc(-c2cncc(OC3SCC(OC(C)=O)C(OC(C)=O)C3OC(C)=O)c2)c1 (stereo not drawn) ?
Completion: 112 to 115 °C

====

Quantity: melting point

Examples from the recorded data:
Compound | melting point
[N-]=[N+]=NCC1OC(n2cc(C=CBr)c(=O)[nH]c2=O)CC1Cl (stereo not drawn) | 58 to 60 °C
CC(C)(C)c1cccc(C(=O)Nc2ccccc2C(=O)NCCc2ncc[nH]2)c1 | 205 to 210 °C
Nc1ncc(-c2cccc(Cl)c2Cl)nc1C(=O)Nc1cccnc1 | 239 to 241 °C

Could you now consider this next compound?
Prompt: I have this compound here, CCOC(=O)Cc1cc(Br)c(SC(=O)N(C)C)c(Br)c1 , and I need its recorded melting point.
Completion: 105 to 107 °C

====

Quantity: melting point

Examples with their reported melting point follow.
Compound | Quantity | Result Value
CCOC(=O)COc1ccc(SCc2cccc3nc(-c4ccc(C(F)(F)F)cc4)oc23)cc1C | melting point | 180 to 182 °C
Cc1ccc2c(c1)Sc1ccc(F)cc1C(N1CCN(CCN3CCOC3=O)CC1)C2 (centres undefined) | melting point | 147 to 149 °C
COC1CCCCC1(O)c1ccncc1 (centres undefined) | melting point | 98 to 101 °C

Prompt: Suppose we examine the compound CC(=O)Oc1ccc(Cl)cc1C(=O)O ; what melting point value has been reported?
Completion: 146 to 148 °C

====

Quantity: melting point

Sample answers from the record:
Molecule | melting point
COC(=O)c1ccc(OCc2ccccc2)c(C(C)=O)c1 | 68 to 72 °C
Cc1c(S(=O)(=O)c2ccc(=O)[nH]n2)oc2ccc(Cl)cc12 | 247 to 248 °C
O=C1C2CCCCC2C(=O)N1c1ccc(Cl)cc1F (configuration not stated) | 94 to 95.5 °C
COc1ccc(C(=O)c2cc(F)cc(F)c2)cc1 | 90 °C
CC1CC(=O)NN=C1c1ccc2c(c1)Oc1c[nH]nc1N2 (configuration not stated) | 304 to 306 °C

Prompt: Query (molecule): Cc1nn(-c2ccc(C(F)(F)F)cn2)cc1COc1cccc(CC(=O)O)c1 ; field requested: melting point
Completion: 142 to 143 °C

Prompt: Query: melting point; subject: CC(C#N)N1CCC(C(=O)c2ccc(F)cc2)CC1 (configuration not stated)
Completion: 127 °C

Prompt: I have this molecule here, CCc1cc2c(C3=NNC(=O)CC3C)cc(Cl)cn2n1 (configuration not stated) , and I need its recorded melting point.
Completion: 172 to 174 °C

Prompt: If you can, please state the reported melting point value of CCOC(=O)c1ncn2c(C(F)(F)F)cc(-c3ccc(C(F)(F)F)cc3)nc12 .
Completion: 243 °C

Prompt: For CCOC(=O)N1CCN(C(=CNc2cccc(OC)c2)C(=O)OC)CC1 , what is its reported melting point?
Completion: 120 to 122 °C

Prompt: Which melting point value belongs to OCCCc1ccccc1N(Cc1ccccc1)Cc1ccccc1 ?
Completion: 71.5 to 73 °C

Prompt: I would be grateful if you could share the reported melting point for CCOC(=O)CN(Cc1ccccc1Cl)c1ccc(C(O)(C(F)(F)F)C(F)(F)F)cc1 .
Completion: 146 °C

====

Recorded measurements of melting point, one per entry

Solved cases (2 shown):
Smiles Structure | melting point
Cc1cccc2c1c(N1CCOCC1)nc1c(-c3nc(C4CC4)no3)ncn12 | 262 to 266 °C
CC(=O)Nc1cc(O)ccc1-c1cc(=O)c2ccccc2o1 | 253 to 255 °C

Then this compound:
Prompt: What value of measured melting point is listed for C#CCNC(=O)c1cccc(-c2ccc3cnc(Nc4ccc(N5CCN(C)CC5)cc4)nn23)c1 ?
Completion: 185 to 187 °C

====

Quantity: melting point

Compound | Result Value
CCOC(=O)COc1ccc(Br)cc1C1C(C(=O)OCC)=C(C)NC(C)=C1C(=O)OCC | 153 to 154 °C
CC(C)(C)NCC(O)COc1ccc2c(=O)cc(-c3ccc(OCc4ccccc4)c(OCc4ccccc4)c3)oc2c1 (stereo unspecified) | 159 to 161 °C
CC(C)=CCc1cc(C(=O)C=Cc2ccc(O)cc2)c(O)cc1O | 157 to 158 °C
CSc1snc(SCOCC#CI)c1C#N | 87 to 88 °C

Prompt: # melting point lookup, item CCn1nc2c(N)nc3ccccc3c2c1CC(C)(C)N
Completion: 234 to 235 °C

Prompt: For the compound CN1C(=O)CC[C@]2(C)c3ccc(-c4cnc5ccccc5c4)cc3CC[C@@H]12 , what melting point is on record?
Completion: 180 to 185 °C

Prompt: Look up melting point for this compound: Cc1nc(NC(=O)c2cnn3c(C(F)F)cc(-c4ccc(C(F)(F)F)cc4)nc23)sc1S(=O)(=O)NC(CO)CO
Completion: 217 °C

Prompt: Find the recorded melting point belonging to O=C(O)COc1ccc2c(-c3ccc(Cl)cc3)noc2c1Cl and report it.
Completion: 254 to 257 °C

Prompt: Requested read-out: melting point. Entry: CCOC(=O)C1=C(C(F)(F)F)NC(N)(C(F)(F)F)C(C(=O)OCC)S1 (stereo unspecified)
Completion: 87.5 to 89 °C

====

Quantity: melting point

Compound | melting point
C#CC(C)N(C)c1nc2ccc(OC(F)(F)F)cc2s1 (stereo not drawn) | 42 to 43 °C
COc1cc2c(cc1OCc1ccccc1)C(C#N)C2 (stereo not drawn) | 85 °C
Cc1onc2c1N(CCCOc1ccccc1)C(=O)COC2(C)c1ccccc1 (stereo not drawn) | 118 to 120 °C
CCc1[nH]n(C2CCCC2)c2nc(Cc3cccs3)nc(=O)c1-2 | 173 to 174 °C
COC(=O)C(C)Oc1ccc(NC(=O)CCCCCO)cc1 (stereo not drawn) | 62 to 64.5 °C
CCOC(=O)NC(=O)C(Cl)C(C)=O (stereo not drawn) | 69.5 to 70 °C
O=C(Oc1ccc2c(c1)C13CCCCC1N(C2)N(C(=O)C1CC1)CC3)C1CC1 (single isomer, unassigned; (+)) | 144 °C
C=CCN(C(=O)Nc1cc(C)c(S(=O)(=O)C[N+](=O)[O-])c(C)c1)c1ccccc1 | 164 to 165 °C
CCOC(=O)C(C)Oc1ccc(Nc2ccc(C(F)(F)F)cc2N)cc1 (stereo not drawn) | 78 °C
N#Cc1cc2c(cc1F)S(=O)(=O)N=CN2C1CC1 | 205 to 207 °C

Prompt: Data request, read-out melting point, for COC(=O)c1c(C)nc(CC(C)C)c(CN)c1-c1ccc(C)cc1
Completion: 56 to 57 °C

Prompt: May I ask what melting point has been recorded for O=C1CN(NC(=O)Sc2ccccc2)C(=O)N1 ?
Completion: 152 to 155 °C

Prompt: Field request: melting point | item: CC(=O)NNC(=S)Nc1cc(C)ccc1Cl
Completion: 145 to 157 °C

Prompt: For the compound CSc1ccc(-c2ccccc2)c(NC(N)=S)c1 , what melting point is on record?
Completion: 166 to 167 °C

Prompt: Please report the recorded melting point for Cc1cc(C)c(-c2cn(C)c3c(O)ncnc23)c(C)c1 .
Completion: 230 to 232 °C

Prompt: Which melting point is reported for this compound? CN(C)C(=O)c1c(C(=O)CBr)c2cc(Cl)ccc2n1C(=O)OC(C)(C)C
Completion: 110 to 115 °C

Prompt: Requested read-out: melting point. Entry: Cc1onc(-c2ccc(Cl)o2)c1-c1ccccc1
Completion: 71 to 73 °C

Prompt: // returns reported melting point for input CCOC(=O)CC(=O)CCNC(=O)OCc1ccccc1
Completion: 25 to 27 °C

Prompt: // query melting point value for entry CCc1nnc2ccc(-c3ccccc3)nn12
Completion: 133 to 135 °C

Prompt: Return reported melting point; argument: Cc1cccc(C)c1N1C(=S)N(C)C(O)C1O (stereo not drawn)
Completion: 140 to 143 °C

Prompt: Could you tell me which melting point is on file for CS(=O)(=O)c1ccc(-c2cnn(-c3cccc(Cl)c3)c(=O)c2SCc2ccccc2)cc1 ?
Completion: 142 to 145 °C

Prompt: Which melting point reading was recorded for the compound COC(=O)C(C)(C)OCc1cc2cc(Cl)ccc2n1S(=O)(=O)c1ccc2c(c1)OCO2 ?
Completion: 90 to 92 °C

Prompt: // melting point lookup, key: CCCC(=O)c1cnc2c(C)cccc2c1Nc1ccccc1C
Completion: 110 to 112 °C

====

Quantity: melting point

// solved cases for melting point follow
Compound | Result Value
COc1ccc(CN(Cc2ccc(OC)cc2)c2nccc(-c3ccc(-c4ccc(N(c5ccccc5)c5ccccc5)cc4)cc3)n2)cc1 | 95 to 97 °C
CC(C)Oc1ccccc1-c1ncc(C(=O)O)c(=O)[nH]1 | 191 to 193 °C
OCC(O)Cc1nccn1CCCc1cccc(OCc2coc(/C=C/c3ccc(C(F)(F)F)cc3)n2)c1 (configuration not stated) | 102 to 104 °C
CC(O)Cc1ccc(-c2ccc3cc(C(=O)O)ccc3c2)cc1C12CC3CC(CC(C3)C1)C2 (configuration not stated) | 282 °C
N#Cc1cc(N2CCCCC2)ccc1N | 87 to 88 °C
OC(Cc1ccnc2ccccc12)C(Cl)(Cl)Cl (configuration not stated) | 190 to 192 °C
Nc1ncccc1-c1nc2cc(-c3cccnc3)cnc2n1-c1ccc(CNS(=O)(=O)c2ccccc2)cc1 | 217 to 219 °C
Cc1nn(C)c2nc(N)c(-c3cccc(Cl)c3)nc12 | 224 to 226 °C
COc1ccc2cc([C@H](C)C(=O)Oc3ccc(OCCO[N+](=O)[O-])cc3)ccc2c1 | 141 to 142 °C
CCOC(=O)c1c(CN(CC)CC)nc2sc3cnccc3c2c1-c1ccc(O)c(OC)c1 | 179 to 181 °C

Prompt: Look at this compound and give its reported melting point. CC(=O)c1cccc2ccc(CS(=O)(=O)N3CCOCC3)cc12
Completion: 162 °C

Prompt: Recorded melting point of Nc1nc2ccc(C(=C(Cl)Cl)c3ccccc3)cc2n1N1C=CC=CS1 , please.
Completion: 214 to 217 °C
